Hello, the source for this data is patent EP0083750A1, in case you need it.

Parameter MIC, tested on Candida albicans, listed per item.

Example compounds with recorded MIC:
compound | MIC
CC(C)(COc1ccc(Cl)cc1)C(O)C(Cc1ccc(Cl)cc1Cl)n1cncn1 (stereo not drawn) | < 1 µg/mL
C=CCC(C(O)C(C)(C)Oc1ccc(Cl)cc1Cl)n1ccnc1 (stereo not drawn) | < 1 µg/mL
CC(C)(COc1ccc(-c2ccccc2)cc1)C(O)Cn1ccnc1 (stereo not drawn) | < 1 µg/mL

Challenge: Dear colleague, I am looking for the recorded MIC of the following compound: CCC(C(O)C(C)(C)Oc1ccc(Cl)cc1)n1cncn1 (stereo not drawn)
Response given: 8 µg/mL

Challenge: Can you handle C=CCC(C(O)C(C)(C)Oc1ccc(Cl)cc1)n1cncn1 (stereo not drawn) next?
Response given: 4 µg/mL

Challenge: Can you handle CC(C)(Cc1ccc(Cl)cc1)C(O)C(Cc1ccccc1)n1ccnc1 (stereo not drawn) next?
Response given: < 1 µg/mL

----------
Test system: Candida albicans
procedure-details: Antimycotic in-vitro activity, serial dilution test (MIC)
Assay type: cell-based
setup-conditions: Reihenverdünnungstest, 5 x 10^4 Keimen/ml Substrat, Fleischextrakt-Traubenzucker-Bouillon, 20°C, 24 bis 96 Stunden, read-out: MHK-Werte in γ/ml Nährmedium, Candida albicans
Each record here notes measured MIC.

Example compounds with recorded MIC:
compound | MIC
CCOC(=O)c1ccc(OC(C)(C)C(O)C(Cc2ccc(Cl)cc2Cl)n2cncn2)cc1 (stereo not drawn) | < 1 µg/mL
CC(C)(Oc1ccc(Cl)cc1Cl)C(O)C(Cc1ccccc1)n1cncn1 (stereo not drawn) | 16 µg/mL
Cc1ccc(CC(C(O)C(C)(C)COc2ccc(Cl)cc2)n2cncn2)cc1 (stereo not drawn) | < 1 µg/mL
CCCCC(C(O)C(C)(C)COc1ccc(Br)cc1)n1cncn1 (stereo not drawn) | < 1 µg/mL
CCOCC(C)(C)C(O)C(Cc1ccc(Cl)c(Cl)c1)n1cncn1 (stereo not drawn) | 16 µg/mL

Challenge: Dear colleague, I am looking for the recorded MIC of the following compound: CC(C)(Cc1ccccc1)C(O)C(Cc1ccc(Cl)cc1Cl)n1cncn1 (stereo not drawn)
Response given: < 1 µg/mL

Challenge: Can you handle COc1cccc(CC(C(O)C(C)(C)COc2ccc(Cl)cc2)n2cncn2)c1 (stereo not drawn) next?
Response given: < 1 µg/mL

Challenge: Can you handle CC(C)(COc1ccc(Cl)cc1)C(O)C(CC1CCCCC1)n1ccnc1 (stereo not drawn) next?
Response given: < 1 µg/mL

Challenge: Can you handle CCCCC(C(O)C(C)(C)Cc1ccc(Cl)cc1Cl)n1cncn1 (stereo not drawn) next?
Response given: 2 µg/mL

----------
Test system: Trichophyton mentagr.
value-type: MIC (µg/mL)
Give the number; µg/mL is assumed, so skip it.

Example compounds with recorded MIC:
compound | MIC, µg/mL
CCOCC(C)(C)C(O)C(Cc1ccc(Cl)cc1Cl)n1cncn1 (stereo not drawn) | 4
CCCCC(C(O)C(C)(C)Oc1ccc(C(=O)OCC)cc1)n1cncn1 (stereo not drawn) | 2
CC(C)(Oc1ccc(Cl)cc1Cl)C(O)C(Cc1ccc(Cl)cc1)n1cncn1 (stereo not drawn) | 2

Challenge: Dear colleague, I am looking for the recorded MIC of the following compound: COCC(C)(C)C(O)C(Cc1ccc(Cl)cc1)n1cncn1 (stereo not drawn)
Response given: 4

Challenge: Can you handle OC(Cn1cncn1)c1ccc(-c2ccc(Cl)cc2)cc1 (stereo not drawn) [(B), reference compound] next?
Response given: 4
